- Tested on: Hs578T
- test.method.notes: drug sensitivity score (DSS), CellTiter-Glo (DSS (AUC-based score)); higher = stronger drug effect (viability inhibition or cytotoxicity); extreme values may be limits of the assay
- condition.context: incubation time: 72 h
Respond with Met for drug sensitivity score values of 3 and above, Not met for values below.

Record Nc1ccccc1NC(=O)c1ccc(CNC(=O)OCc2cccnc2)cc1 [Entinostat] ; criterion: drug sensitivity score no lower than 3. Met?
Met

Could you tell me if the measured drug sensitivity score of COc1cc([C@@H]2c3cc4c(cc3[C@@H](O[C@@H]3O[C@@H]5CO[C@@H](c6cccs6)O[C@H]5[C@H](O)[C@H]3O)[C@H]3COC(=O)[C@H]23)OCO4)cc(OC)c1O [Teniposide] reaches 3 or more?
Met

Quick check: does C=CC(=O)N1CCC[C@@H](n2nc(-c3ccc(Oc4ccccc4)cc3)c3c(N)ncnc32)C1 [Ibrutinib] have drug sensitivity score greater than or equal to 3?
Not met

Does the compound CCCCC(=O)OCC(=O)[C@]1(O)Cc2c(O)c3c(c(O)c2[C@@H](O[C@H]2C[C@H](NC(=O)C(F)(F)F)[C@H](O)[C@H](C)O2)C1)C(=O)c1c(OC)cccc1C3=O [Valrubicin] have recorded drug sensitivity score that is 3 or more?
Met
